Where these numbers come from: the supplement of paper PMC9170038

So I've got a bunch of sequences here, and I need their apparent KD of K4 kissing-loop reporter values.
Test system: K4 kissing-loop RNA reporter
assay-procedure: apparent KD of K4 kissing-loop reporter; higher = weaker reporter binding
conditions-used: Eterna round: R107; input ligand: arginine 13.2 mM
Numbers only, in nM.

UUUGGAUUGCGCGAAGAGUGCAAGCGCCAACGAGGACCGGUACGGCCGCCACUCGCGGAGGAGUCCAGUGAUGUUGGACGGCCCG [Laraones]; 276
CUGACCAACAGCGAUACCAGCGUGGAGUGAUGUUCCCUGGUCCGGGCUGAUGUUCCCUUGCGCCCUUGGCAGCGCAGAAGCAGGA [Exclusion Theophylline B GF 12]; 263

Field apparent KD of K4 kissing-loop reporter (system: K4 kissing-loop RNA reporter) for entry AAUUCAGUGAUGUUGGAAGGCAAGCGGGAUACCAGCGGAGAAUAACGCCCUUGGCAGCCCAUAUAUCCCAAAUAGAUAAUAGUUC [Same State - Theophylline A (Freestyle 4)] = 220

###

System: MS2 coat protein
assay-procedure: apparent KD of MS2 coat protein; higher = weaker reporter binding
conditions-used: Eterna round: R107; input ligand: arginine 13.2 mM
quantity-name: apparent KD of MS2 coat protein (nM)
One number for each entry, in nM.

A selection of reference data follows.
UCCUGCAGAGCGGCCGCCACUGUGUUGCGUGAGGAUGACCCAACAUGAGGAUCACCCAUGUUGUUUAGGACCGGGCUUGCCUCGA [xcmulliny]; 12
UUCAAAGGGAACGGUGCUGGUAACAGAGAUACCAGAGUAAUAAUACUCCCUUGGCAGCUCAUAACAUGAGGAUCACCCAUGUAAU [Exclusion Theophylline A GF21]; 12.4
UCGUAGGUAGGAAGGAGCGCAUACUUCACAUGAGGAUCACCCAUGUCGAGACGUGAGUCAGUGCAGGUAGGUCGCCUAGUUAUGA [Same State - Arginine B (Freestyle 24)]; 19.6

I would be grateful if you could provide apparent KD of MS2 coat protein for each of the following entries.
1. UGGUCACUAGGAGAUACCAGCCGACAUGAGGAUCACCCAUGUAACCGGCGUCCUCCCUUAGGCCCUUGGCAGCUCGUAGUUGCUC [Vebice]
2. GGACUAACCUGAAGGAGCGACACGCAGAAACUGCAAAUUCCUCCACACGAGGAUCACCCGUGUCAGGUAGGUCGCAGGUUAGUCG [ArgBX 28]
3. UCGUAGGUAGGAAGGAGCGCAUACUUCACAUGAGGAUCACCCAUGUCGAGACGUGAGUCAGUGCAGGUAGGUCGCCUAGCUAUGA [Same State - Arginine B (Freestyle 25)]
4. UCUCACAUGAGGAUCACCCAUGUGUGCGGUCGAGGACCGGUACGGCCGCCACUCGAAUCCUUCCGCGAGAAGAUUGUACGACGGC [theeternabot_sameState_MS2_Trp_A_38]
5. AGACAUGAGGAUCACCCAUGUAGCAUGGAUACCAGAUCCAGAUUUAUCCCUUGGCAGCUGUGGUACAGUGAUGGAUUGCUCCUAG [Exclusion - Theophylline A (Freestyle 8)]
6. ACGUCCGGGUUAAUCGUGGGCAUGGUCGAUACCAGUAUUUUAAUCUACCCUUGGCAGCGACAUGAGGAUCACCCAUGUGCGAUGA [XTheo A #17]
7. UAAUAAGUACCGGUCCUCAGAUCCUCAUGACGAGGACCGGUACGGCCGCCACUCGAAACAUGAGGAUCACCCAUGUAAUAAUAAU [|T'-M'-Trp-Ms2|_Design 1]
8. UGAGUUAGACAAAAGUCUAGCUCUGGUGAAGGAGCGUCCGAAAGGACAGGUAGGUCGCACCACAUGAGCAUCAGCCAUGUUCCUU [ArgAS 23 #OpenEnded #AlternativeMS2]

### Response
11.9
19
18.2
28.3
46.3
15.5
17.9
17.9

###

Test system: K4 kissing-loop RNA reporter
assay-procedure: apparent KD of K4 kissing-loop reporter; higher = weaker reporter binding
conditions-used: Eterna round: R107; input ligand: theophylline 20 uM
quantity-name: apparent KD of K4 kissing-loop reporter (nM)
Numbers only, in nM.

A selection of reference data follows.
CCAUCGCUAUUCGAUACCAGUCAUCACAUCUUUGGUGUGAUAAAGGAGUGAUGUUCCCAAGACCCUUGGCAGCGAAUAGUGAUGG [Theophylline B K4 11]; 172
UCUGGAGUAUAUGAUACCAGCAGUGAGAGACAGGAAGUAUAGUGAUGUUAUAUGAGAGAAUGCCCUUGGCAGCGUGUGCGGUGGG [SSTheophylB.R]; 106
CCCGGGUCGUCAGGAUAUGAGUGCAGUGAUGUUGCACGGGUCUUUGCAGGCCCUGGUGAGGCGUACUCAGAAGGGACGCCAGGUC [Atazazaed]; 130
CUGACCAACAGCGAUACCAGCGUGGAGUGAUGUUCCCUGGUCCGGGCUGAUGUUCCCUUGCGCCCUUGGCAGCGCAGAAGCAGGA [Exclusion Theophylline B GF 12]; 303

I would be grateful if you could provide apparent KD of K4 kissing-loop reporter for each of the following entries.
1. AGGUACAAAAGUACCGCUAGAUCCACGGAAGGAGCGGCCGAAAGGCCAGGUAGGUCGCCGGGCAGUGAUGUUGCCGGAUCUAGCA [Omei KL Arginine A SS A v2]
2. CAUACGCAUGGAGGAUAUGAGAUUACUCAUAUCAUUUAAUAUUCUCAGUGAUGUUGAGAUUUAAACUCAGAAGGCCAUGUGUAUG [Ex FMN B 12]
3. CAGUUCUAUUCCGGUAGUGAUGUUACCAAGCGAGGACCGGUACGGCCGCCACUCGAGUGACAGACGUACUGGUAUCACCCGCUUC
4. ACGUCCGGAUUGAUCGUGGGCAUGGUCGAUACCAGUAGUUUAAUCUACCCUUGGCAGCGACAUGAGUGAUGUUCAUGUGCGAUGA [KL-XTheo-A7 #analogue]
5. GUCUCAAAAGAGGCAAGCACUCACGAGGACAAGGAUAUCAUCUCAAUGAGAAGGUGUCCUCGUCCCUAGUGAUGUUAGGGAGUGC [Omei KL FMN A SS E v2]
6. CGUACGGUUUCUUUCUUUCCGUACGCGUGCCGAGGACCGGUACGGCCGCCACUCGCUACAGCCUAGUGAUGUUAGGCAAUUCUUU

### Response
1. 185
2. 356
3. 186
4. 350
5. 478
6. 124

I would be grateful if you could provide apparent KD of K4 kissing-loop reporter for each of the following entries.
1. GUCUCGAGUGAUGUUCGGGUCGAUUGGGAAGGAGCGCCCGGAAGGGCAGGUAGGUCGCCCGGACCGCGCGGGCAACCGCGCGGCC [#2 Same State - Arginine A Attempt #11 (HarryS)]
2. GGAUUGCCAGUGAUGUUGGCAUAAUCUGAAGGAGCGCGUGAAAACGCAGGUAGGUCGCAGAACCUUGCCAACUGAUCGAAAGAUC [Ex Arginine A K4 30]

### Response
[141, 185]

###

Tested on: K4 kissing-loop RNA reporter;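 also: bound reporter read as fluorescence of individual clusters on recovered sequencing chips by microscopy, with normalized cluster intensities fitted with a binding model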
assay-procedure: apparent KD of K4 kissing-loop reporter; higher = weaker reporter binding
conditions-used: Eterna round: R107; input ligand: none
quantity-name: apparent KD of K4 kissing-loop reporter (µM)
Give bare numbers, in µM.

GAGGUACAGGCGGCCGCCACUAGUGAUGUUAGUGAUAGAAGAUAUAGUAAAUAUCGGCAUGUAGAUAGGACCGGGCCUGGUGGAG [vvgtcmullin]; 0.288
UGAUUGCCAGUGAUGUUGGCAGUGACUGAAGGAGCGCGUGAAAACGCAGGUAGGUCGCAGUUGAGUGCCAAUUGAUCGAAAGAUC [KL-XArg-A5]; 0.244
UUCGUAGUAGGAAACUAUUACGAAAAGGAAGGAGCGGCGAAGAAGCCAGGUAGGUCGCCUAUUGACAGUGAUGUUGUUAUAUAGA [#10]; 0.176

I would be grateful if you could provide apparent KD of K4 kissing-loop reporter for each of the following entries.
1. GUCUCAAAAGAGGCAAGCACUCACGAGGACAAGGAUAUCAUCUCAAUGAGAAGGUGUCCUCGUCCCUAGUGAUGUUAGGGAGUGC [Omei KL FMN A SS E v2]
2. UGCGCUGUGUACUGAAAUGUUAUGCGGGAUACCAGAGUCUUUUUAUUCCCUUGGCAGCUUGAGUGAUGUUUGAUGCCGUUCUUGU [po,,mmullin]
3. UUUCGGCCCAGUGAUGUUGGGUGGAGGCGGCGAGGACCGGUACGGCCGCCACUCGGCGCACUGGCGGAGUGAUGUUUCGUGUAUA [Same State Tryptophan A GF 14]

### Response
[0.368, 0.548, 0.752]

I would be grateful if you could provide apparent KD of K4 kissing-loop reporter for each of the following entries.
1. AACUUAAUUUAUAAGCAGUGAUGUUGCUUACGAGGACCGGUACGGCCGCCACUCGAUCGCAUUUAUGUCUUCAAUUAAUUCAUUA [JR_ExcTryptoA_Sub016]
2. UAAGCUCUGACGGCCGCCACUGCACGUGAUCCAGUAGUGGCUAACAUGAGUGAUGUUCAUGUAAGCAGGACCGGGUCAGAGCUAA [KL-XTryp-B13 #analogue]
3. AACUCUCAGGCACGCGAGUGAUGUUCGCGCCGAGGACCGGUACGGCCGCCACUCGGGCCUGAGAGAGGUUAUCAAAGAUAGCCAA [whbob_SS_tryp_A]
4. UCAUCGGUACAAGGAUAUUAGAGGUAGUGAUGUUACCCGUUUUUUAUACAUCGAUGUCACCCUAACUAAGAAGGUGUUCAAACUU [theeternabot_exclusion_KL_FMN_B_7]
5. GCCAGUGAUGUUGGCAUUUCGAGCCAUGAAGGAGCGCACGGAAGUGCAGGUAGGUCGCAUGGUACUUAAGAUAUUAUCCUAAGUA [Atceis]

### Response
1: 0.197; 2: 0.0947; 3: 0.137; 4: 0.0502; 5: 0.192

apparent KD of K4 kissing-loop reporter in this record for AGAUUCGACACGGCCGCCACUCGUGGUGGAUUACCUAGUGUCGAAGUUGAGUGAUGUUCAACUACGAGGACCGGGUGUUGAGUCU [KL-XTryp-B7 #analogue] : 0.215
